Below, each entry is listed alongside its reported log10(solubility).
assay: Aqueous solubility in phosphate buffer of pH 7.4; format: physicochemical
A value of 2 here means solubility of 100 in µg/mL, since values are log10.

Smiles Str	Result Number
CC(C)(C)NC(=O)[C@@H]1C[C@@H]2CCCC[C@@H]2CN1C[C@@H](O)[C@H](Cc1ccccc1)NC(=O)O[C@H]1CO[C@H]2OCC[C@H]21	2.37
CC(C)(C)NC(=O)[C@@H]1C[C@@H]2CCCC[C@@H]2CN1C[C@@H](O)[C@H](Cc1ccccc1)NC(=O)[C@H](CC(N)=O)NC(=O)c1ccc2ccccc2n1	1.00
CC(C)(C)NC(=O)[C@@H]1C[C@@H]2CCCC[C@@H]2CN1C[C@@H](O)[C@H](Cc1ccccc1)NC(=O)O[C@H]1CCOC1	2.18
CC(C)(C)NC(=O)[C@@H]1C[C@@H]2CCCC[C@@H]2CN1C[C@@H](O)[C@H](Cc1ccccc1)NC(=O)O[C@@H]1CO[C@@H]2OCC[C@@H]21	2.11

Req: Reported log10(solubility), compound `CC(C)(C)NC(=O)[C@@H]1C[C@@H]2CCCC[C@@H]2CN1C[C@@H](O)[C@H](Cc1ccccc1)NC(=O)O[C@@H]1CO[C@@H]2OCCC[C@@H]21` : ____
Resp: 2.03

====

Below, each entry is listed alongside its reported IC95.
molecular target: Human immunodeficiency virus type 1 protease (Human immunodeficiency virus 1); assay: Inhibitory activity against HIV-1 protease enzyme
State just the number; it will be interpreted in nM.

Smiles Str	Unit String	Result Number
CC(C)(C)NC(=O)[C@@H]1C[C@@H]2CCCC[C@@H]2CN1C[C@@H](O)[C@H](Cc1ccccc1)NC(=O)O[C@H]1CO[C@H]2OCCC[C@H]21	nM	100

Req: Reported IC95, compound `C[C@@H]1C[C@@H]2[C@@H](OC[C@@H]2OC(=O)N[C@@H](Cc2ccccc2)[C@H](O)CN2C[C@H]3CCCC[C@H]3C[C@H]2C(=O)NC(C)(C)C)O1` : ____
Resp: 200

Req: Reported IC95, compound `C[C@H]1C[C@@H]2[C@@H](OC[C@@H]2OC(=O)N[C@@H](Cc2ccccc2)[C@H](O)CN2C[C@H]3CCCC[C@H]3C[C@H]2C(=O)NC(C)(C)C)O1` : ____
Resp: 200

====

Below, each entry is listed alongside its reported IC95.
target: Human immunodeficiency virus type 1 protease (Human immunodeficiency virus 1) (UniProt Q72874); assay: Inhibitory activity against HIV-1 protease enzyme
State just the number; it will be interpreted in nM.

Smiles Str	Unit String	IC95
CC(C)(C)NC(=O)[C@@H]1C[C@@H]2CCCC[C@@H]2CN1C[C@@H](O)[C@H](Cc1ccccc1)NC(=O)O[C@H]1CCS(=O)(=O)C1	nM	364

Req: Reported IC95, compound `CC(C)(C)NC(=O)[C@@H]1C[C@@H]2CCCC[C@@H]2CN1C[C@@H](O)[C@H](Cc1ccccc1)NC(=O)O[C@@H]1CO[C@@H]2OCCC[C@@H]21` : ____
Resp: 50

====

biological target: Human immunodeficiency virus type 1 protease (Human immunodeficiency virus 1) (UniProt Q72874); assay: Inhibitory activity against HIV-1 protease enzyme
Property: IC95

// below: answered compounds
Smiles Str	IC95
CC(C)(C)NC(=O)[C@@H]1C[C@@H]2CCCC[C@@H]2CN1C[C@@H](O)[C@H](Cc1ccccc1)NC(=O)O[C@@H]1CO[C@@H]2CCO[C@@H]21	> 0.2 µM
CC(C)(C)NC(=O)[C@@H]1C[C@@H]2CCCC[C@@H]2CN1C[C@@H](O)[C@H](Cc1ccccc1)NC(=O)O[C@H]1CO[C@@]2(C)OCC[C@@H]12	> 0.2 µM

Req: Reported IC95, compound `CC(C)(C)NC(=O)[C@@H]1C[C@@H]2CCCC[C@@H]2CN1C[C@@H](O)[C@H](Cc1ccccc1)NC(=O)O[C@@H]1CCOC1` : ____
Resp: > 0.8 µM

The measured values listed here are drawn from ChEMBL document CHEMBL1129277.
